- Tested on: adult S. mansoni
- EXPERIMENT NOTES: Phenotypic screen of adult S. mansoni worms, severity scores and descriptors
- Type: cell-based, Schistosoma mansoni
- SETUP CONDITIONS: adult schistosomes, 10 μM
READOUT: bioactivity against adult S. mansoni

CCN1CCCN(c2ncc(-c3ccc4c(Nc5cnccn5)ccnc4c3C)cn2)CC1 [9c]    no bioactivity
O=C(O)CN1CCN(c2ncc(-c3ccc4c(Nc5cnccn5)ccnc4c3)cn2)CC1 [3b]    no bioactivity
CC(C)(C)OC(=O)N1CCN(c2ncc(-c3ccc4c(Nc5cnccn5)ccnc4c3)cn2)CC1 [3a]    no bioactivity

----------
- Tested on: HepG2 cells
- EXPERIMENT NOTES: Drug toxicity to HepG2 cells (MTT)
- Assay type: cell-based
- SETUP CONDITIONS: HepG2 cells, 48 hours incubation, MTT
compounds and their reported HepG2 TC50
READOUT: HepG2 TC50 (µM)

c1cnc(Nc2ccnc3cc(-c4cnc(N5CCOCC5)nc4)ccc23)cn1    39
O=S(=O)(c1ccc(-c2ccc3nccc(NC4CCOCC4)c3c2)cc1)N1CCOCC1    16
CN1CCC(Nc2ccnc3ccc(-c4ccc(S(=O)(=O)N5CCOCC5)cc4)cc23)CC1    26
O=S(=O)(c1ccc(-c2ccc3nccc(N[C@@H]4CCCC[C@H]4O)c3c2)cc1)N1CCOCC1 (relative stereo)    32
CN1CCCN(c2ccc(Nc3ccc4c(Nc5cnccn5)ccnc4c3)cc2)CC1    17
O=S(=O)(c1ccc(-c2ccc3nccc(NCCN4CCCC4)c3c2)cc1)N1CCOCC1    9.2
O=S(=O)(c1ccc(-c2ccc3nccc(NCC4CCOCC4)c3c2)cc1)N1CCOCC1    32
O=S(=O)(c1ccc(-c2ccc3nccc(NCCC4CCOCC4)c3c2)cc1)N1CCOCC1    21

----------
- System: adult S. mansoni
- EXPERIMENT NOTES: Phenotypic screen of adult S. mansoni worms, severity scores and descriptors
- Format: cell-based, Schistosoma mansoni
- SETUP CONDITIONS: adult S. mansoni, 10 μM, 24 h; scale 0 (no activity) to 4 (maximal activity)
# Severity Scores (10 μM) 24 h listing for each entry below
READOUT: Severity Scores (10 μM) 24 h

CN(C)CCN(C)c1ncc(-c2ccc3c(Nc4cnccn4)ccnc3c2)cn1    0
COc1ccc(NC(=O)c2ccc(-c3ccc(S(=O)(=O)N4CCN(C)CC4)cc3)cc2O)cc1Cl    2
COc1ccc(NC(=O)c2ccc(-c3cnc(N4CCN(C)CC4)nc3)cc2O)cc1Cl    0
O=C(O)CN1CCN(c2ncc(-c3ccc4c(Nc5cnccn5)ccnc4c3)cn2)CC1    0
O=S(=O)(c1ccc(-c2ccc3nccc(NCC4CCOCC4)c3c2)cc1)N1CCOCC1    0
CN1CCN(c2ncc(-c3ccc4c(N[C@@H]5CCCC[C@H]5O)ccnc4c3)cn2)CC1    0
COc1ccc(NC(=O)c2ccc(-c3cccc(N4CCOCC4)c3)cc2O)cc1Cl    3
COC(=O)C1CCCN1c1ncc(-c2ccc3c(Nc4cnccn4)ccnc3c2)cn1 (stereo not drawn)    3
CN1CCCN(c2ncc(-c3ccc4nccc(Nc5ccncn5)c4c3)cn2)CC1    0

----------
- EXPERIMENT NOTES: Rat hepatocyte Clint
- Type: in vitro ADME
- SETUP CONDITIONS: rat hepatocytes, intrinsic clearance; read-out: RH CLint
READOUT: hepatocyte CLint (µL/min/1e6 cells)

Cc1cnc(Nc2ccnc3cc(-c4cnc(N5CCN(C)CC5)nc4)ccc23)cn1 [5a]    150
CCN1CCN(c2ncc(-c3ccc4c(Nc5cnccn5)ccnc4c3)cn2)CC1 [4b]    45
c1cnc(Nc2ccnc3cc(-c4cnc(N5CCCNCC5)nc4)ccc23)cn1 [4g]    4
COc1ccc(Nc2ccnc3cc(-c4cnc(N5CCCN(C)CC5)nc4)ccc23)cc1Cl [5d]    9
